The reported measurements were obtained from PubChem BioAssay (NCI).

experiment: NCI Yeast Anticancer Drug Screen. Data for the bub3 strain (AID 167); settings: S. cerevisiae bub3 mutant strain, at 50.0 µM, active compounds read high
This is part of a sample that, as a whole, favours compounds with a hit. Of some 79,000 tested, about 15% had one in any assay.
Quantity Kind: growth inhibition (%)
Please reply with the bare figure in % and do not write the unit itself.

| Compound | growth inhibition (%) |
| --- | --- |
| CCNCC(=O)Nc1ccccc1C(=O)OCC | 8.6 |

# context switch: different compound, same growth inhibition
Incoming: Find the recorded growth inhibition belonging to CC(O)CCNC(c1ccccc1)C(O)c1ccccc1 (stereo unspecified) and report it.
Outgoing: 14.6

* * *

This section presents compounds with their documented growth inhibition values.
test: NCI Yeast Anticancer Drug Screen. Data for the rad50 strain (AID 155);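 also: 0% = growth of vehicle-only cultures of the same strain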; settings: S. cerevisiae rad50 strain growth inhibition; at 50.0 µM; active compounds read high
About 79,000 compounds went through this panel and 15% of them were active in at least one assay; those are over-represented in the sample as a whole.
Quick reminder: number only, in %, skip the unit.

| Compound | growth inhibition, % |
| --- | --- |
| c1csc(-c2cc(-c3ccsc3)c(-c3ccsc3)s2)c1 | -37.5 |
| CN1c2ccccc2S(=O)(=O)n2c(COc3ccc(Cl)cc3)nnc21 | -3.4 |

Incoming: What value of growth inhibition has been reported for the following compound? Cc1cc(=NO)cc(C)n1O
Outgoing: 43.5

Incoming: Quick one: growth inhibition of Cc1cc(C)cc(C(C)C)c1 ?
Outgoing: -15.4

Incoming: Which growth inhibition value belongs to Nc1nc(N)c2cc(S(=O)(=O)c3ccccc3)ccc2n1 ?
Outgoing: 26.1

Incoming: Entry CCN(C)c1nc(N(C)CC)c2nc(N(C)CC)nc(N(C)CC)c2n1 : reported growth inhibition = ?
Outgoing: 1.95

Incoming: // returns reported growth inhibition for input COC(=O)C1C(O)CCC2CN3CCc4c([nH]c5cccc(OC)c45)C3CC21 (stereo unspecified)
Outgoing: -3.7

Incoming: So what does the record say about growth inhibition for COc1cc(OC)c2cnc(Cl)cc2c1 ?
Outgoing: 15.4

Incoming: # get_value(readout='growth inhibition', item= CCCCNCC1COc2cccc(OCC)c2O1 (stereo unspecified) )
Outgoing: 17.1

Incoming: What does the data say about its growth inhibition? Entry: O=C(Nc1cc(Cl)c(Cl)cc1Cl)Nc1cc(Cl)ccc1Oc1ccc(Cl)cc1S(=O)(=O)O
Outgoing: 98

Incoming: Entry under review: Fc1ccc(F)c(C2SCc3nc4ccccc4n32)c1 (stereo unspecified) . Reported growth inhibition?
Outgoing: 19.4

Incoming: Please look up its growth inhibition: COc1ccc(N=Cc2ccc(C#N)cc2)cc1
Outgoing: 9.4

Incoming: Reported growth inhibition, compound C/C=C/C(=O)OC1CCCC1 : ____
Outgoing: 30.9

Incoming: Data request, read-out growth inhibition, for Clc1cc(Br)c2c(Cl)ccnc2c1Br
Outgoing: 35.6

Incoming: Item CC(=O)/C(C)=C\c1ccc(C(C)C)cc1 has what recorded growth inhibition?
Outgoing: 8.85

Incoming: Name the recorded growth inhibition for COc1cc(/C=C/C(=O)OC2C(O)C3CC(OC(=O)c4cc(OC)c(OC)c(OC)c4)CC2N3C)cc(OC)c1OC (stereo unspecified) .
Outgoing: 0.55

* * *

Measured growth inhibition by item
assay: NCI Yeast Anticancer Drug Screen. Data for the rad50 strain (AID 155);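 also: 0% = growth of vehicle-only cultures of the same strain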; conditions: S. cerevisiae rad50 strain growth inhibition; at 50.0 µM; active compounds read high
The panel holds about 79,000 compounds, 15% with a hit somewhere; the sample as a whole holds those more often. Active and inactive are the calls of the source. Rule as the data show it: active = growth inhibition above about 70%; inactive = the rest.

Some solved entries appear below for comparison.
| Molecule | growth inhibition |
| --- | --- |
| CC(=O)c1ccc(N=C2C(=O)Nc3ccccc32)cc1 | 28.9% (inactive) |
| CCC1(C#N)OC1C (stereo not given) | 26.9% (inactive) |
| Cc1cc(-c2ccccc2)nc(Nc2cc3ccccc3[nH]2)n1 | -8.6% (inactive) |
| O=C(NC(=S)Nc1ccc2ccccc2c1)c1ccc(Cl)cc1Cl | -1.45% (inactive) |

Moving on to the next molecule.
Incoming: Param item = N#C/C(=C/c1cccnc1)C(=O)c1ccccc1 ; retrieve measured growth inhibition.
Outgoing: -6.1% (inactive)
